Reference source: ChEMBL document CHEMBL4368890

molecular target: Metabotropic glutamate receptor 3 (Homo sapiens, UniProt Q14832); experiment: Allosteric activity at mGlu3 (unknown origin)
Sequence (Q14832 whole entry): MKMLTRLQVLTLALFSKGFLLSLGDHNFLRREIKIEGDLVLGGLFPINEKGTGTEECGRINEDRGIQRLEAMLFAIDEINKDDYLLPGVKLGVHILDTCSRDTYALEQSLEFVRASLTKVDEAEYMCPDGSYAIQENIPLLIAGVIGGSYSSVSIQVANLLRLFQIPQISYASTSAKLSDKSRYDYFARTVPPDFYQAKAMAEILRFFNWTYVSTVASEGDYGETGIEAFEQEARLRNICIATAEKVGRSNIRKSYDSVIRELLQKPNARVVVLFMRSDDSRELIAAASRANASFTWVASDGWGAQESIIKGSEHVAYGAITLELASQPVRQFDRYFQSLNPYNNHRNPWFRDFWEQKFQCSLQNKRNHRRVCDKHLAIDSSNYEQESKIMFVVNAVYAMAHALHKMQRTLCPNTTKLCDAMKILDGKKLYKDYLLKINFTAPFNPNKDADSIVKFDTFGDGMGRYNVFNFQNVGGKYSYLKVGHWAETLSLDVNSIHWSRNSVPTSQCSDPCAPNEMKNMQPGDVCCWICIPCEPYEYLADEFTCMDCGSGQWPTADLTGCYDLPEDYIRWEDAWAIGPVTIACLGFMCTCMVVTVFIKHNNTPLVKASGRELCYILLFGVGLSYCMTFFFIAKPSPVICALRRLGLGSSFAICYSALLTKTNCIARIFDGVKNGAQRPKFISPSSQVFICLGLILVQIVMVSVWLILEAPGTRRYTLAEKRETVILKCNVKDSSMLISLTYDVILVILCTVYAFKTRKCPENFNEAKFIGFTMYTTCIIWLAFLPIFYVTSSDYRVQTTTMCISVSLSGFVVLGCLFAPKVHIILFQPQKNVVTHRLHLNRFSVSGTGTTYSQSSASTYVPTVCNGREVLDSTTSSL
Outcome Measure: IC50

Prompt: Value lookup for IC50; key = COc1ccc(-c2c(C)nn3c(C(F)(F)F)cc(C)nc23)c(F)c1F
Completion: > 10 µM

---

target: Metabotropic glutamate receptor 3 (Homo sapiens); assay: Allosteric activity at mGlu3 (unknown origin)
pEC50: −log10 of the molar value.
Outcome Measure: pEC50

Prompt: Return reported pEC50; argument: COc1ccc(-c2c(C)nn3c(C(F)(F)F)cc(C)nc23)c(F)c1F
Completion: < 5.00

---

target: Metabotropic glutamate receptor 7 (Homo sapiens, UniProt Q14831); assay: Agonist activity at human mGlu7 expressed in CHO cells assessed as reduction in forskolin-induced cAMP production; assay type: functional, cell-based
Sequence (Q14831 whole entry): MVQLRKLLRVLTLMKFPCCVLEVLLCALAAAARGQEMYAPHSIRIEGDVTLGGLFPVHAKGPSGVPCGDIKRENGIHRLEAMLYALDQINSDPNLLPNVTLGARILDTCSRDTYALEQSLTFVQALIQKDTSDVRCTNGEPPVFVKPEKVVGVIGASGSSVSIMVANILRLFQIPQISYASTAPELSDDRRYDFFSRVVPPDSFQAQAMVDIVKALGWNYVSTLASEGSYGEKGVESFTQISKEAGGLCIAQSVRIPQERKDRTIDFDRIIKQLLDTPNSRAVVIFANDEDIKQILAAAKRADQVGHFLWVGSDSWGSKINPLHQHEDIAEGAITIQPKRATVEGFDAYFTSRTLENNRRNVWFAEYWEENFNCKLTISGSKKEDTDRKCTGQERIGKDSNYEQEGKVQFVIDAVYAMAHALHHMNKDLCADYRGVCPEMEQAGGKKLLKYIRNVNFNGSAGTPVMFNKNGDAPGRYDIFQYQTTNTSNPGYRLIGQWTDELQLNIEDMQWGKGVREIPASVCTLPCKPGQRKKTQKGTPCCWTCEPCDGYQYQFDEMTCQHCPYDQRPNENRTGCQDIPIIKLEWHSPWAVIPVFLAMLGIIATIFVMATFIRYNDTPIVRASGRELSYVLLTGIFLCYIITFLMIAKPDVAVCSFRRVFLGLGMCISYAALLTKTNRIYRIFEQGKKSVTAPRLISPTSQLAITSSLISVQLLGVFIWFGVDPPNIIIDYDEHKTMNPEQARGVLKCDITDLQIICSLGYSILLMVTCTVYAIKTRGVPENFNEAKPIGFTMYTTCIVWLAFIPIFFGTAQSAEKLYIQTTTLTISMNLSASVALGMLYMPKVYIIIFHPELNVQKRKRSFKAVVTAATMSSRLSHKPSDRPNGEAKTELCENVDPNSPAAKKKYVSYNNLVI
Outcome Measure: pEC50
// pEC50: -log10(molar conc.)

Prompt: Form field - read-out: pEC50; system: Metabotropic glutamate receptor 7 (Homo sapiens, UniProt Q14831); submitted item: O=C(C[C@H](NCC1CC1)c1ccccc1)N1CCCOc2ccccc21
Completion: 9.00
